- System: H3N2 subtype
- assay_summary: Antiviral activity against Influenza A virus (A/Aichi/2/1968(H3N2)) infected in MDCK cells after 30 mins by crystal violet-based plaque assay
- Assay type: functional, organism-based
- protocol_conditions: 0.5 h
Where a SMILES comes first, the peptide text is derived from it. The star is where a group is joined. Stearoyl = CCCCCCCCCCCCCCCCCC(=O)*
endpoint_label: IC50

So, CCCCCCCCCCCCCCCCCC(=O)N[C@@H](C)C(=O)N[C@H](C(=O)N[C@@H](C)C(=O)N[C@@H](CO)C(=O)N[C@H](C(=O)N1CCC[C@H]1C(=O)N[C@@H](CCCNC(=N)N)C(=O)N[C@@H](C)C(=O)N[C@@H](CCCNC(=N)N)C(=O)NCC(=O)N[C@@H](CCCCN)C(=O)N[C@@H](Cc1ccc(O)cc1)C(=O)N[C@@H](Cc1c[nH]c2ccccc12)C(=O)N[C@@H](Cc1c[nH]c2ccccc12)C(=O)NCC(N)=O)C(C)C)C(C)C (Stearoyl-AVASVPRARGKYWWG-NH2) ? Its IC50 was 17 µM
